# protocol.notes: Plasmodium falciparum growth inhibition, primary screen, strain 3D7, DAPI fluorescence, 100 nL (AID 1184);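 also: parasites grown inside human red blood cells in medium with human serum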
# condition.context: P. falciparum 3D7 growth, 3 d, higher = more signal
Provide the recorded z-score for the entries that follow.
Answers are plain numbers.

Guide cases for z-score, answers given:
molecule: C=CCNC(=O)[C@@H]1[C@H]2C(=O)O[C@H](c3ccccc3)[C@H](c3ccccc3)N2[C@H](c2ccc(O)cc2)[C@@]12C(=O)N(C(=O)OCCOC)c1ccccc12
endpoint.name: z-score
reported: -2.07
//
molecule: CC(C)C[C@@H]1NC(=O)[C@H]2C[C@@H](C(=O)NCCCCCCNC(=O)CS)[C@@H](c3cccc(OCCO)c3)N2C1=O
endpoint.name: z-score
reported: -0.0202
//
molecule: O=C(OCCF)C1=CCC(c2cccc(Cl)c2)O1 (centres undefined)
endpoint.name: z-score
reported: 0.65

Okay, now this molecule:
### Prompt Requested field: z-score. Item: C=C(CCCC)/C(=C/C[C@H](OC(C)=O)c1ccc(CO)o1)c1cnc2ccccc2c1
### Response -0.867
